Kindly state fold change for each of the entries shown.
MEASUREMENT DESCRIPTION: viability loss with induced miR-34 in A549 – imaging, A549 dox-inducible miR-34, nuclei and caspase counts, primary screen (AID 1347080)
TEST CONTEXT: A549 miR-34 inducible, Hoechst nuclei count, 48 h; measured here: relative caspase fold change +Dox/-Dox
Give bare numbers.

// below: answered compounds
COMPOUND	fold change
CN(C)C(=O)c1cc(-c2cnc(-c3ccccn3)nc2)nc2cc(F)ccc12	1.98
CC(N)=NCCCC[C@@H](N)C(=O)O	1.26
COc1cc(C2c3cc4c(cc3C(O[C@@H]3O[C@@H]5COC(C)O[C@H]5C(O)C3O)[C@H]3COC(=O)[C@H]23)OCO4)cc(OC)c1O (stereo partly specified)	1.28
CC1(C)S[C@@H]2[C@H](NC(=O)[C@H](N)c3ccccc3)C(=O)N2[C@H]1C(=O)OC1OC(=O)c2ccccc21 (stereo partly specified)	0.554

Batch: fold change for all items listed.
1. CN1CC(=O)N2C(c3ccc4c(c3)OCO4)c3[nH]c4ccccc4c3C[C@@H]2C1=O (stereo partly specified)
2. COC(=O)CCSCc1ccc(-c2onc(C)c2NC(=O)OC(C)c2ccccc2Cl)cc1 (stereo unspecified)
3. C=CC[N@@+]12CC[C@]34c5ccccc5N5/C=C6\C7N(/C=C(\C53)[C@@H](C[C@@H]41)/C(=C/CO)C2)c1ccccc1[C@@]71CC[N@@+]2(CC=C)C/C(=C\CO)[C@@H]6C[C@@H]12 (stereo partly specified)
4. O=C(OC1CC2CC3CC(C1)N2CC3=O)c1c[nH]c2ccccc12 (stereo unspecified)
5. Cc1c(C(=O)Nc2ccc(N3CC(C)OC(C)C3)nc2)cccc1-c1ccc(OC(F)(F)F)cc1 (stereo unspecified)

1. 0.922
2. 0.706
3. 0.771
4. 2.24
5. 0.609

Batch: fold change for all items listed.
1. CC[C@]12CCCN3CCc4c(n(c5ccccc45)[C@](O)(C(=O)OC)C1)[C@@H]32
2. C[C@@H]1C(=O)NC2=Nc3cccc(Cl)c3CN21

1. 1.26
2. 1.63

----------
MEASUREMENT DESCRIPTION: MELAS cybrid and Rieske KO viability enhancers – cell-based, MELAS cybrids, Rieske KO mouse fibroblasts, CellTiter-Glo, primary screen (AID 1508586);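 also: z relative to plate mean and SD of compound and empty wells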
TEST CONTEXT: MELAS cybrid survival, low glucose, CellTiter-Glo 48 h; stronger effect = higher value
Kindly state z-score for each of the entries shown.
One number for each entry.

// below: answered molecules
>>> print(df.to_string())
                                   molecule  reported_result
0  COc1c(C)c(C(=O)c2ccc(N)c(C(=O)O)c2)n2ccccc12            0.355
1  CC#CCn1c(N2CCCC(N)C2)nc2c1c(=O)n(Cc1nc(C)c3ccccc3n1)c(=O)n2C (stereo not drawn)           -0.379

Proceeding to the next molecule to report its z-score.
Item COc1ncccc1-c1cnn(CC(=O)Nc2cc(-c3ccccn3)nn2C)c1 has what recorded z-score? -0.417

----------
STUDY SYSTEM: Mitogen-activated protein kinase 7 (Homo sapiens)
MEASUREMENT DESCRIPTION: Gal4-ERK5 driven luciferase induction – cell-based, HTS, primary screen (AID 1508626);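 also: luciferase driven by Gal4-ERK5 fusion binding five Gal4 sites before minimal TATA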
TEST CONTEXT: HeLa Gal4-ERK5 transactivation, 18 h, at 5 µM
Counter-ions that a name gives are not always drawn. The source made the active and inactive calls.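 How the source made its calls: active means luciferase signal above three times the same-plate solvent-only control wells; inactive means the rest.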 Peptide text beside a SMILES is read from it. * marks the point of attachment. Tfa = O=C(C(F)(F)F)*
The reply should name one outcome from active, inactive

// below: answered molecules
MOLECULE	ASSIGNED CATEGORY
CC(C)C(NC(=O)C(Cc1ccc(O)cc1)NC(=O)C(NC(=O)C(F)(F)F)C(C)C)C(=O)O (stereo not drawn) (Tfa-Val-Tyr-Val-OH; configuration not given here)	inactive
CC(C)[N+]1(C)[C@@H]2CC[C@H]1CC(OC(=O)C(CO)c1ccccc1)C2 (stereo not given in full)	inactive
C[C@@H]1CCC[C@H](C)N1NC(=O)c1ccc(Cl)c(S(N)(=O)=O)c1	inactive

Switching to the query record.
How was CC1CCC2(OC1)OC1CC3C4CCC5C[C@@H](O)CCC5(C)C4=CCC3(C)C1C2C (stereo not given in full) classified in this test? active

----------
Kindly state liver cell % of control for each of the entries shown.
MEASUREMENT DESCRIPTION: liver-stage malaria parasite load reduction – cell-based, known kinase inhibitor set, luminescence, hepatoma host viability (AID 624392);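 also: infected cells incubated roughly two days before readout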
TEST CONTEXT: Plasmodium liver stage in hepatoma cells, luciferase luminescence, concentration not given here; measured here: host liver cell viability
One number for each entry, in %.

Batch: liver cell % of control for all items listed.
1. CC(C)n1cnc2c(Nc3cccc(F)c3)nc(NCCO)nc21
2. CCN1CCN(Cc2ccc(NC(=O)c3cc(NC(=O)C4=NN(c5ccccc5)C(=O)C4)cc(OC)c3)cc2C(F)(F)F)CC1

[95.1, 100]

Batch: liver cell % of control for all items listed.
1. CC(C)C(CO)Nc1nc(Nc2cc(C(=O)O)cc(C(=O)O)c2)c2ncn(C(C)C)c2n1 (stereo not given)
2. Nc1ncc(-c2cccnc2)nc1C(=O)c1cccnc1
3. COc1cc(NC(=O)c2csc(N)n2)cc(C(=O)Nc2cccc(C(F)(F)F)c2)c1

1. 107
2. 98.8
3. 88.9

----------
MEASUREMENT DESCRIPTION: P. berghei load reduction in hepatocytes – cell-based, HepG2, luciferase luminescence, HepG2 viability, primary screen (AID 624349);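 also: 100% = mean of DMSO negative control wells on the same plate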
TEST CONTEXT: P. berghei liver stage in HepG2, luciferase luminescence, concentration not given here; stronger effect = lower value
MEASUREMENT TYPE: parasite load remaining (%)
Numbers only, in %.

// below: answered molecules
                                   molecule  unit_string  reported_result
0  O=C1NC(=O)C(c2cn(CCCO)c3ncccc23)=C1c1cnccn1            %             39.6
1      O=C(Nc1ccc(Cl)cc1)c1ccccc1NCc1ccncc1            %             39.8
2  CC(C)(C)n1nc(Cc2cccc3ccccc23)c2c(N)ncnc21            %             40.9
3                   Nc1ncnc2c1cnn2-c1ccccc1            %               72

Proceeding to the next molecule to report its parasite load remaining.
Item Nc1ncnc2c1ncn2C1O[C@H](CO)[C@@H](O)[C@@H]1O (stereo not given in full) has what recorded parasite load remaining? 68.6

----------
MEASUREMENT DESCRIPTION: chitosan synthesis blockers in C. neoformans – flow cytometry, Cibacron Brilliant Red staining (AID 1347148);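 also: compound exposure lasted three days at 37 degrees C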
TEST CONTEXT: Cryptococcus neoformans chitosan, stronger effect = lower value; at 10 µM unless noted
Calls of active or inactive are those of the source. The rule behind the calls is not given here.
MEASUREMENT TYPE: fold fluorescence

In [3]: df
Out[3]:
                                   compound                reported_result
0  CCCCC/C=C\C\C=C/C=C/C=C/[C@@H](SC[C@H](NC(=O)CC[C@H](N)C(=O)O)C(=O)NCC(=O)O)[C@@H](O)CCCC(=O)O      3.59 [at 1 µM] (inactive)
1                    CCCCC[C@H](O)CCCC(=O)O  4.65 [at 265.6 µM] (inactive)
2      C[C@H]1CNCCN1S(=O)(=O)c1cccc2cnccc12  3.94 [at 171.6 µM] (inactive)
3  N#CC(C#N)=C(N)/C(C#N)=C/c1ccc2[nH]ccc2c1  3.69 [at 192.8 µM] (inactive)

Batch: fold fluorescence for all items listed.
1. CCCC(=O)Nc1nc2c(ncn2C2O[C@H]3COP(=O)(O)O[C@@H]3[C@@H]2OC(=O)CCC)c(=O)[nH]1 (some centres not stated)
2. CC(C)[C@@H](O)CC[C@H](C)[C@@H]1CC[C@@H]2[C@H]3CC=C4C[C@H](O)CC[C@@]4(C)[C@@H]3CC[C@]21C

6.9 [at 103 µM] (inactive)
4.41 [at 124.2 µM] (inactive)

Item O=C(O)c1cc(N(Cc2ccccc2O)Cc2cc(O)ccc2O)ccc1O has what recorded fold fluorescence? 4.34 [at 131.1 µM] (inactive)

----------
MEASUREMENT DESCRIPTION: MELAS cybrid and Rieske KO viability enhancers – cell-based, MELAS cybrids, Rieske KO mouse fibroblasts, CellTiter-Glo, primary screen (AID 1508586);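 also: z relative to plate mean and SD of compound and empty wells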
TEST CONTEXT: MELAS cybrid survival, low glucose, CellTiter-Glo 48 h; stronger effect = higher value
Kindly state z-score for each of the entries shown.
Numbers only.

// below: answered compounds
COMPOUND	z-score
O=C(O)COc1cccc2ccccc12	-0.276
C=CCC1C=C(C)CC(C)CC(OC)C2O[C@@](O)(C(=O)C(=O)N3CCCC[C@H]3C(=O)OC(C(C)=CC3CCC(O)C(OC)C3)C(C)C(O)CC1=O)C(C)CC2OC (stereo not given in full)	-0.545
C[C@H]1NC(=O)[C@H]2CN(C(=O)Oc3ccc(Cl)cc3)CCN2C1=O	-0.514
COc1cc2ncn(-c3cc(OCc4ccccc4Cl)c(C(N)=O)s3)c2cc1OC	0.0989
COC1=CC(=O)CC(C)[C@@]12Oc1c(Cl)c(OC)cc(OC)c1C2=O (stereo not given in full)	-0.169
O=C(c1cn(Cc2cncn2Cc2ccc(Br)cc2)cc1-c1cccc2ccccc12)N1CCOCC1	-0.128
c1ccc(NCc2ccc(CNc3ccccn3)cc2)nc1	-0.161
O=C(O)C(C(=O)O)c1ccccc1	0.44
NC(=O)c1noc(C(CCCC2CCCCC2)CC(=O)NO)n1 (stereo not given)	-0.42
CNC1C(O)C(NC)[C@H]2O[C@@]3(O)C(=O)CC(C)O[C@H]3O[C@@H]2C1O (stereo not given in full)	-0.277

Batch: z-score for all items listed.
1. CCOC(=O)C(CCc1ccccc1)NC(C)C(=O)N1Cc2cc(OC)c(OC)cc2CC1C(=O)O (stereo not given)
2. CCc1nc(NC(=O)NC(c2ccccc2)c2ccco2)nn1C (stereo not given)
3. O=C(O)c1ccc(-c2ccccc2OC(F)(F)F)o1
4. NC1CC1c1ccc(-c2cccc(O)c2)cc1 (stereo not given)
5. Cc1nc(NC(=O)NCC2COc3ccccc3O2)nn1C(C)C (stereo not given)

1. -0.293
2. -0.443
3. -0.488
4. -0.398
5. -0.362

Batch: z-score for all items listed.
1. CCOc1ccccc1-c1ncnc2sc(C)c(C)c12
2. O=S(=O)(O)CCNC1CCCCC1
3. CCn1c(C(=O)OC)c(NC(C)=O)c2cc(NCc3ccc(OC)cc3)cnc21
4. O=C(c1ccc(F)cc1)N1CCCC(c2nc(-c3ccc(F)cc3)no2)C1 (stereo not given)
5. CC(C)CC(NC(=O)CNC(=O)c1cc(Cl)ccc1Cl)B1OC(=O)CC(CC(=O)O)(C(=O)O)O1 (stereo not given)
6. CC(O)[C@@H]1C(=O)N2C(C(=O)O)=C(SC3CNC(CNS(N)(=O)=O)C3)C(C)[C@@H]12 (stereo not given in full)

-0.535
0.282
-0.521
-0.287
-0.37
-0.367
